Method Summary: Toxicity liver stage against HepG2, at 10uM
Format: cell-based
Set-up: test concentration 10 uM, cell line HepG2-A16-CD81EGFP
Cond: human, HepG2-A16-CD81EGFP cells; read-out: INHIBITION
Reported cytotoxicity at 10 µM values follow for various molecules
// return numeric value only (unit: %, not printed)

Known results for molecules:
Cn1cc(CC2CCN(C(=O)NCc3csc(C4CC4)n3)C2)cn1 (stereo unspecified) :: 5.22
N#Cc1cccc(OC2CCN(C(=O)c3cncc(O)c3)CC2)c1 :: 7.28
CN(C)c1ccc(CCNC(=O)C2CCC(=O)N(C3CCCC3)C2)cc1 (stereo unspecified) :: 20.8

Which value of cytotoxicity at 10 µM has been reported for `CCOc1ccc(Oc2cc(CN)ccn2)cc1` in the records?
0.102

Similarly, CCc1cnc(N2C[C@H]3CCCC(N(C)Cc4ccccn4)[C@H]3C2)nc1 (stereo partly specified) ?
-114

Similarly, `CCSc1ncc(CN2CCN(c3nc(C)cnc3C)CC2)cn1` ?
5.84

Similarly, COCCN(C)CC1CCCN1S(=O)(=O)Cc1ccccc1F (stereo unspecified) ?
6.84

Similarly, `OC1(CNc2ccc(F)cc2)CCNCC1` ?
2.4

====

Reported cytotoxicity at 10 µM values follow for various molecules
Method Summary: Toxicity liver stage against HepG2, at 10uM
Assay type: cell-based
Parameters: test concentration 10 uM, cell line HepG2-A16-CD81EGFP
Cond: human, HepG2-A16-CD81EGFP cells; read-out: INHIBITION
Report field: quantity (unit follows the number).

Known results for molecules:
O=C(N1CCCC1)N1CCC2(CC1)COCCN(Cc1cccnc1)C2 :: -77.3%
COc1ccccc1CN(Cc1cccs1)S(=O)(=O)N(C)C(C)C :: -46.7%
O=C(NCc1ccco1)[C@@H]1CCO[C@@H]2CCN(c3ncccn3)C[C@@H]21 :: -68.3%

Which value of cytotoxicity at 10 µM has been reported for `CC(=O)NCCNC(=O)NCCCc1cccc(F)c1` in the records?
10.5%

Similarly, `CCN1C[C@@H]2CN(C(=O)C3CC=CC3)C[C@@H]2C1=O` ?
2.35%

Similarly, Cc1ncc(C(=O)N2CCCC(Cc3nccs3)C2)cn1 (centres undefined) ?
-2.03%

Similarly, c1cnnc(N2CCCC2CNc2ncnc3ccccc23)c1 (centres undefined) ?
2.33%

Similarly, CC1(NC(=O)Cc2csc(-c3ccccc3Cl)n2)CCS(=O)(=O)C1 (centres undefined) ?
-9.81%

====

Reported cytotoxicity at 10 µM values follow for various compounds
Method Summary: Toxicity liver stage against HepG2, at 10uM
Format: cell-based
Design: test concentration 10 uM, cell line HepG2-A16-CD81EGFP
Cond: human, HepG2-A16-CD81EGFP cells; read-out: INHIBITION
Report field: quantity (unit follows the number).

CC(C)(C)CNC[C@H]1Cn2c(-c3ccccc3)cnc2CO1 :: -9.14%
CCC(CNC(=O)c1nc(=O)[nH][nH]1)Oc1cccc(C(F)(F)F)c1 (stereo unspecified) :: -6.25%
CC(C)Cc1nc(OCC(N)=O)c(C#N)c2c1CCC2 :: 75.7%
CNS(=O)(=O)c1cc(C(=O)N2CCCCCC2CC(C)C)co1 (stereo unspecified) :: 11.2%
Cn1cc(CNC[C@H]2Cn3ccnc3CO2)c2ccccc21 :: -1.91%

Which value of cytotoxicity at 10 µM has been reported for `O=C(O)c1ccc(N2CCC(Cc3ccccc3)CC2)nn1` in the records?
-6.14%

Similarly, `O=C(CC1CC1)N[C@@H]1CN(C(=O)c2ccoc2)C[C@@H]2CCCO[C@@H]21` ?
-104%

Similarly, `CC(C)=CCN1C[C@@H]2CC[C@H]1CN(C(=O)CCc1nnc(C)[nH]1)C2` ?
-6.57%

Similarly, `CCc1nnc(CNc2ccc(CC(=O)N3CCSCC3)cc2)o1` ?
7.37%

Similarly, `CCN(C(=O)CS(=O)(=O)Cc1cc(Cl)c2c(c1)OCCCO2)C1CC1` ?
0.787%

Similarly, `O=C(Cc1c[nH]c2ccccc12)N1CCN(C(=O)c2ccoc2)CC1` ?
-2.15%

====

Method Summary: Toxicity liver stage against HepG2, at 10uM
Format: cell-based
Set-up: test concentration 10 uM, cell line HepG2-A16-CD81EGFP
Cond: human, HepG2-A16-CD81EGFP cells; read-out: INHIBITION
Reported cytotoxicity at 10 µM values follow for various compounds

Known results for compounds:
Cc1nc(CN2CCC3(CCCN(Cc4ccncc4)C3)C2=O)cs1 (configuration not stated) :: 1.38%
O=C(CSCc1ccncc1)N(Cc1ccsc1)C1CC1 :: -11.2%
CCCNC(=O)CNc1cc(C(=O)N2CCSCC2)ccc1C :: -5.91%
CN(Cc1cnn(C)c1)C(=O)c1ccnc(OC2CCC2)c1 :: 3.82%
COCC1CN(C(=O)c2ccco2)Cc2cn(C)nc21 (configuration not stated) :: 9.08%

Which value of cytotoxicity at 10 µM has been reported for `CCn1ncc(CN2C[C@@H]3CCCN3C[C@@H]2CCSC)c1C` in the records?
-27.3%

Similarly, `COc1ccc(F)cc1CSCC(=O)N(CCC#N)CCC#N` ?
0.0531%

Similarly, COCCC(=O)N1CCC2(COCc3cnc(NCC4CC4)nc32)C1 (configuration not stated) ?
6.24%

====

Reported cytotoxicity at 10 µM values follow for various compounds
Method Summary: Toxicity liver stage against HepG2, at 10uM
Assay type: cell-based
Design: test concentration 10 uM, cell line HepG2-A16-CD81EGFP
Cond: human, HepG2-A16-CD81EGFP cells; read-out: INHIBITION
// return numeric value only (unit: %, not printed)

COc1cc(-n2ccnc2-c2ccc(C(=O)O)s2)ccc1NC(C)=O :: 2.74
CNC(=O)CN1CCOCC2(C1)CN(C(=O)C(C)C)CCO2 (stereo unspecified) :: -0.182
Cc1nn(C)c(N(C)C)c1CNCc1ccnc(N2CCCC2)c1 :: -11.4
Cc1ncsc1C(=O)N1CCC(O)(CN2CCc3ccccc3C2)C1 (stereo unspecified) :: -8.11

Which value of cytotoxicity at 10 µM has been reported for c1cnnc(NCC2CN(Cc3ccon3)CCO2)c1 (stereo unspecified) in the records?
-32.2

Similarly, `CNC(=O)CN1CC[C@H]2CN(C(=O)c3cc[nH]n3)C[C@H]2C1` ?
0.53

Similarly, `O=C(CCNc1ncccn1)NCCOc1ccc2c(c1)CCC2` ?
-4.54

Similarly, `COc1cc(F)c(S(=O)(=O)N2CCN(C)Cc3ccccc32)cc1OC` ?
3.84

====

Reported cytotoxicity at 10 µM values follow for various molecules
Method Summary: Toxicity liver stage against HepG2, at 10uM
Type: cell-based
Parameters: test concentration 10 uM, cell line HepG2-A16-CD81EGFP
Cond: human, HepG2-A16-CD81EGFP cells; read-out: INHIBITION
// return numeric value only (unit: %, not printed)

Known results for molecules:
CNC(=O)c1nc(Cn2ncc3ccccc3c2=O)no1 :: 6.6
CC(=O)N[C@@H]1CN(C(=O)CC2CC2)C[C@H]1O :: -7.1

Which value of cytotoxicity at 10 µM has been reported for CCc1n[nH]c(C2CN(C(=O)c3cncnc3CC)CCO2)n1 (centres undefined) in the records?
-5.65

Similarly, `Cc1csc(C2(NC(=O)CCNC(=O)C(C)(C)C)CCCC2)n1` ?
-7.43

Similarly, `Cc1ccc(C(=O)NCCCS(C)(=O)=O)c(=O)[nH]1` ?
-7.6

Similarly, `CN(Cc1cccc(F)c1)S(=O)(=O)N1CCOCC1` ?
-1.97

Similarly, CCc1cnc(CNC(=O)NC2CC(C)(C)OC2(C)C)s1 (centres undefined) ?
10.3

Similarly, `Cc1nc2ccc(C(=O)N3C[C@@H](O)[C@H](N4CCCC4)C3)cc2[nH]1` ?
-8.66

Similarly, CCc1nccc(CN2CCCC(CNC(=O)c3occc3C)C2)n1 (centres undefined) ?
2.28

Similarly, Cn1ccnc1CN1CCCCC1Cn1cccn1 (centres undefined) ?
5.94

Similarly, c1cc(CN2CCOC(Cn3cccn3)C2)c2c(c1)OCCO2 (centres undefined) ?
-2.66

Similarly, `COc1cc(NCc2ccncc2)c(-c2nn[nH]n2)cc1OC` ?
7.91

Similarly, Cc1ncc(CNC(=O)CCc2cccs2)c(C2CCCN2C)n1 (centres undefined) ?
-9.72

Similarly, `Cc1ccc(OCC(=O)NCC(F)(F)F)nc1` ?
0.84

Similarly, `CC(=O)N1CCC2(CC1)CN(C(=O)C1CC1)c1ccc(F)cc12` ?
2.05

Similarly, COc1cccc2c1OCC(C(=O)N1CCSCC1)C2 (centres undefined) ?
1.88

Similarly, `COc1ccc(CC2(CO)CCN(c3cc(N)ncn3)CC2)cc1` ?
-12.9

Similarly, Cc1ccc(C2CCCN2S(=O)(=O)N(C)Cc2cnn(C)c2)o1 (centres undefined) ?
15.8

Similarly, `Cc1cc(-c2n[nH]c3c2CN(S(=O)(=O)c2ccsc2)CC3)c(C)o1` ?
-15.8

Similarly, Cc1cc(CC(=O)N2CCCC2c2nc(C(C)C)no2)on1 (centres undefined) ?
-25.9
